# assay.system: JAK1 JH1 (Homo sapiens (Human), UniProt P23458)
# Sequence (P23458 875-1153): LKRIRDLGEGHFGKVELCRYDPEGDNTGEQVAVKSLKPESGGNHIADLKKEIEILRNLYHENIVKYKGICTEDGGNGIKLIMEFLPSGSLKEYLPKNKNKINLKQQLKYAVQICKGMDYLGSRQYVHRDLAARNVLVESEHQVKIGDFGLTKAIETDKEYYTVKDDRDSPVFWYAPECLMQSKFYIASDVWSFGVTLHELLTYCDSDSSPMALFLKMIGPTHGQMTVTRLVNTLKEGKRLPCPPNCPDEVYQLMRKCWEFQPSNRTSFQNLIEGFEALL
# protocol.text: Competitive binding assay
pKd: −log10 of the molar value.

>  <molecule>
COc1c(Nc2cc(NC(=O)C3CC3)nnc2C(N)=O)cccc1-c1cc(P(=O)(C2CC2)C2CC2)n(C)n1 [Compound A1]

>  <pKd>
5.16

$$$$

====

# assay.system: JAK3 JH1 (Homo sapiens (Human))
# Sequence (P52333 822-1111): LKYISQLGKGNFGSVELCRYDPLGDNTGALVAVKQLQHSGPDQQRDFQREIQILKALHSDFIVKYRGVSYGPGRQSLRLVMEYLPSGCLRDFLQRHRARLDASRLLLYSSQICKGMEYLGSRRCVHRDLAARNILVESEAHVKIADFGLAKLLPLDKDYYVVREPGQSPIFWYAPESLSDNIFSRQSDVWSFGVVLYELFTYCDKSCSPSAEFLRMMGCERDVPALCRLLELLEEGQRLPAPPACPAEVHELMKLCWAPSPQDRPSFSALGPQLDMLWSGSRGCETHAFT
# protocol.text: Competitive binding assay

>  <mol>
COc1c(Nc2cc(NC(=O)C3CC3)nnc2C(N)=O)cccc1-c1cc(P(=O)(C2CC2)C2CC2)n(C)n1

>  <Kd>
210 nM

$$$$

Provenance of the data: patent US20260001898A1
